Test system: Mycobacterium tuberculosis
Assay: Anti-tubercular activity against Mycobacterium tuberculosis H37Rv incubated at 37 degC by microscopy
Assay type: functional

record-smiles: O=[N+]([O-])c1cn2c(n1)O[C@@H](CCOc1ccc(-c3ccccc3)cc1)CC2
value-units: µM
MIC99: 0.078
//
record-smiles: O=[N+]([O-])c1cn2c(n1)O[C@@H](CCOCc1ccc(-c3ccccc3)cc1)CC2
value-units: µM
MIC99: 0.195
//
record-smiles: O=C(OCC[C@H]1CCn2cc([N+](=O)[O-])nc2O1)OCc1ccc(Cl)cc1
value-units: µM
MIC99: 0.195
//
record-smiles: O=[N+]([O-])c1cn2c(n1)O[C@@H](CCOCc1ccc(C(F)(F)F)cc1)CC2
value-units: µM
MIC99: 0.195
//
record-smiles: O=C(OCC[C@H]1CCn2cc([N+](=O)[O-])nc2O1)OCc1ccccc1OC(F)(F)F
value-units: µM
MIC99: 0.39
//
record-smiles: O=C(Nc1ccc(-c2ccc(OC(F)(F)F)cc2)cc1)OCC[C@H]1CCn2cc([N+](=O)[O-])nc2O1
value-units: µM
MIC99: 0.195
//
record-smiles: O=[N+]([O-])c1cn2c(n1)O[C@@H](CCOCc1ccc(Br)cc1)CC2
value-units: µM
MIC99: 0.39
//
record-smiles: O=[N+]([O-])c1cn2c(n1)O[C@@H](CCOc1ccc(C(F)(F)F)cc1)CC2
value-units: µM
MIC99: 0.195
//
record-smiles: O=[N+]([O-])c1cn2c(n1)O[C@@H](CCOc1ccc(OCc3ccccc3)cc1)CC2
value-units: µM
MIC99: 0.078
//
record-smiles: O=C(OCC[C@H]1CCn2cc([N+](=O)[O-])nc2O1)OCc1cccc(OC(F)(F)F)c1
value-units: µM
MIC99: 0.78
//
record-smiles: O=[N+]([O-])c1cn2c(n1)OC[C@@H](OCc1ccc(OC(F)(F)F)cc1)C2
value-units: µM
MIC99: 0.39
//
record-smiles: O=[N+]([O-])c1cn2c(n1)O[C@H](CCOCc1ccc(OC(F)(F)F)cc1)CC2
value-units: µM
MIC99: 0.39
//
record-smiles: O=[N+]([O-])c1cn2c(n1)O[C@@H](CCOCc1ccc(OC(F)(F)F)cc1)CC2
value-units: µM
MIC99: 0.078
//
record-smiles: O=[N+]([O-])c1cn2c(n1)O[C@H](CCOc1ccc(OCc3ccccc3)cc1)CC2
value-units: µM
MIC99: 0.078
//
record-smiles: O=[N+]([O-])c1cn2c(n1)O[C@@H](CCOc1ccc(OC(F)(F)F)cc1)CC2
value-units: µM
MIC99: 0.098

---

Test system: Mycobacterium tuberculosis
Assay: Anti-tubercular activity against Mycobacterium tuberculosis H37Rv incubated at 37 degC by microscopy
Type: functional
Reported MIC99 values for the following compounds.

record-smiles: O=C(OCC[C@H]1CCn2cc([N+](=O)[O-])nc2O1)OCc1ccc(C(F)(F)F)cc1
value-units: µM
MIC99: 0.39
//
record-smiles: O=[N+]([O-])c1cn2c(n1)O[C@@H](CCOc1ccccc1)CC2
value-units: µM
MIC99: 3.12
//
record-smiles: O=[N+]([O-])c1cn2c(n1)O[C@@H](CCOc1ccc(Cl)cc1)CC2
value-units: µM
MIC99: 0.39
//
record-smiles: O=C(OCC[C@H]1CCn2cc([N+](=O)[O-])nc2O1)OCc1ccc(OC(F)(F)F)cc1
value-units: µM
MIC99: 0.078
//
record-smiles: O=[N+]([O-])c1cn2c(n1)O[C@@H](CCOCc1ccc(Cl)cc1)CC2
value-units: µM
MIC99: 0.39
//
record-smiles: O=C(Nc1ccc(Cl)cc1)OCC[C@H]1CCn2cc([N+](=O)[O-])nc2O1
value-units: µM
MIC99: 0.195
//
record-smiles: CC(C)(C)c1ccc(COCC[C@H]2CCn3cc([N+](=O)[O-])nc3O2)cc1
value-units: µM
MIC99: 0.39
//
record-smiles: O=C(OCC[C@@H]1CCn2cc([N+](=O)[O-])nc2O1)OCc1ccc(OC(F)(F)F)cc1
value-units: µM
MIC99: 1.56
//
record-smiles: O=[N+]([O-])c1cn2c(n1)O[C@@H](CCOc1ccc(-c3ccc(F)cc3)cc1)CC2
value-units: µM
MIC99: 0.05
